target: T1, Ala mutant SEQ ID NO: 36 (human); assay: ELISA, peptide on plate (10 ug/mL)
T1 sequence (peptide): EENMDDQWMADEMEIGY

binder	absorbance 490 nm/630 nm
A11 (antibody, IgG1, V domains shown) VH: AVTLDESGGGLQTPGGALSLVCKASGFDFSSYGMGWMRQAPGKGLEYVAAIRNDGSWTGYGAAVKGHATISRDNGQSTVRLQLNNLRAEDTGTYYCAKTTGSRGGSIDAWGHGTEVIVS VL: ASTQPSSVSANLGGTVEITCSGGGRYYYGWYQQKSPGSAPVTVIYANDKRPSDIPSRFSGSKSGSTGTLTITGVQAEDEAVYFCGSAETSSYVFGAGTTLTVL	1.91 OD
H7 (antibody, IgG1, V domains shown) VH: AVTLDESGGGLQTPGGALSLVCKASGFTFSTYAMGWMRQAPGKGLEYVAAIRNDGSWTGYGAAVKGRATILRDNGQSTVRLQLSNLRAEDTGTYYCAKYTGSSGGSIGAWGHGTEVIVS VL: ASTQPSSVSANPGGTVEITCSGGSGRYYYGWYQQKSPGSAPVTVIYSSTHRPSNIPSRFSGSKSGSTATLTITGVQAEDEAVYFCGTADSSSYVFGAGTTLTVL	1.87 OD
G8 (antibody, IgG1, V domains shown) VH: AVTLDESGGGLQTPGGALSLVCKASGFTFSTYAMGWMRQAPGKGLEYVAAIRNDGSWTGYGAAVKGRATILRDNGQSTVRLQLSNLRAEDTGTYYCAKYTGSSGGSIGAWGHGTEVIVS VL: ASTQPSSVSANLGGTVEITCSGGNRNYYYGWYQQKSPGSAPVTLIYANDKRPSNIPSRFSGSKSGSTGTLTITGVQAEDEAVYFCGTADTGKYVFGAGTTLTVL	1.92 OD

Sourced from patent US20230192890A1
